Known nuclear beta-catenin stimulation of a selection of compounds
Assay: stimulators of nuclear beta-catenin in C2C12, primary screen, imaging, WNT3A-conditioned medium, mouse C2C12, NPC library (AID 1117326); also: reference of the scale not given here
Settings: stimulation, at 2 µM, stronger effect = higher value

[
  {
    "compound": "OCCCc1ccccc1",
    "nuclear beta-catenin stimulation, %": 4.5
  },
  {
    "compound": "Cc1ccc2c(n1)Oc1ccc(C(C)C(=O)OCC(=O)N(C)C)cc1C2 (stereo not drawn)",
    "nuclear beta-catenin stimulation, %": -2.8
  },
  {
    "compound": "CCCCC[C@H](O)C=C[C@H]1[C@H](O)CC(=O)[C@H]1CC=CCCCC(=O)O",
    "nuclear beta-catenin stimulation, %": -0.7
  },
  {
    "compound": "COc1cccc2c1C(=O)c1c(O)c3c(c(O)c1C2=O)C[C@@](O)(C(=O)CO)C[C@@H]3O[C@H]1C[C@H](N)[C@H](O[C@@H]2CCCCO2)[C@H](C)O1",
    "nuclear beta-catenin stimulation, %": 79.4
  },
  {
    "compound": "N#CSCC(=O)O",
    "nuclear beta-catenin stimulation, %": 1
  },
  {
    "compound": "CCCCCCCCCCCCCC(=O)OC(C)C",
    "nuclear beta-catenin stimulation, %": -0.6
  },
  {
    "compound": "N#CCC(=O)NN",
    "nuclear beta-catenin stimulation, %": 2.7
  },
  {
    "compound": "O=C(CCOCCOCCOCCOCCC(=O)Nc1c(I)cc(I)c(C(=O)O)c1I)Nc1c(I)cc(I)c(C(=O)O)c1I",
    "nuclear beta-catenin stimulation, %": -1.6
  },
  {
    "compound": "Cc1cc(O)c(C(C)C)cc1Cl",
    "nuclear beta-catenin stimulation, %": 1.2
  },
  {
    "compound": "c1ccc(-n2cnnn2)cc1",
    "nuclear beta-catenin stimulation, %": 0.9
  },
  {
    "compound": "COc1ccc(S(=O)(=O)N2c3ccc(Cl)cc3[C@@](O)(c3ccccc3Cl)[C@H]2C(=O)N2CCC[C@@H]2C(N)=O)cc1OC",
    "nuclear beta-catenin stimulation, %": -0.8
  },
  {
    "compound": "CC(=O)c1ccc(OCC(=O)N2CCCCC2)cc1",
    "nuclear beta-catenin stimulation, %": -0.3
  },
  {
    "compound": "N#CC1(c2ccc(F)cc2)CCC(=O)CC1",
    "nuclear beta-catenin stimulation, %": -2.1
  },
  {
    "compound": "O=C(CN1CCN(Cc2ccc3c(c2)OCO3)CC1)N1c2ccccc2Sc2ccccc21",
    "nuclear beta-catenin stimulation, %": 2.2
  },
  {
    "compound": "CCn1cc(C(=O)O)c(=O)c2cc(F)c(N3CCN(C)CC3)cc21",
    "nuclear beta-catenin stimulation, %": 1.2
  },
  {
    "compound": "CCCCC(=O)O[C@H]1CC[C@H]2[C@@H]3CCc4cc(O)ccc4[C@@H]3CC[C@]12C",
    "nuclear beta-catenin stimulation, %": -0.3
  },
  {
    "compound": "CN[C@@H]1[C@H](O)[C@H](O[C@@H]2[C@H](O)[C@@H](O[C@H]3O[C@H]([C@@H](C)NC)CC[C@H]3N)[C@@H](N)C[C@H]2N)OC[C@]1(C)O",
    "nuclear beta-catenin stimulation, %": -0.4
  },
  {
    "compound": "Cc1noc(NS(=O)(=O)c2ccc(N)cc2)c1C",
    "nuclear beta-catenin stimulation, %": 0.7
  },
  {
    "compound": "CCOC(=O)[C@H](CCc1ccccc1)N[C@H]1CCc2ccccc2N(CC(=O)O)C1=O",
    "nuclear beta-catenin stimulation, %": 2.2
  },
  {
    "compound": "CCCCCCCCCCCCCCCC(=O)OCC(COC(=O)CCCCCCCCCCCCCCC)OC(=O)CCCCCCCCCCCCCCC",
    "nuclear beta-catenin stimulation, %": -0.6
  },
  {
    "compound": "Oc1ccc(C(O)CNCCCCCCNCC(O)c2ccc(O)c(O)c2)cc1O (stereo not drawn)",
    "nuclear beta-catenin stimulation, %": -2.3
  },
  {
    "compound": "COc1cc2c(cc1OC)C(C(C(=O)N(CCc1ccc(OC)c(OC)c1OC)CCc1ccc(OC)c(OC)c1OC)c1ccccc1)=NCC2 (stereo not drawn)",
    "nuclear beta-catenin stimulation, %": 8.3
  },
  {
    "compound": "N[C@@H](CSSC[C@H](N)C(=O)O)C(=O)O",
    "nuclear beta-catenin stimulation, %": 3.2
  },
  {
    "compound": "CCNC(=O)NCc1cccc(Cl)c1",
    "nuclear beta-catenin stimulation, %": -0.5
  },
  {
    "compound": "CCCCCCCCCCCCCCCCCC(=O)[O][Al]",
    "nuclear beta-catenin stimulation, %": -0.8
  },
  {
    "compound": "CCOC(=O)c1cccnc1",
    "nuclear beta-catenin stimulation, %": 0.3
  },
  {
    "compound": "CC(=O)CC/C=C(\\C)CC/C=C(\\C)CC/C=C(\\C)CCC=C(C)C",
    "nuclear beta-catenin stimulation, %": 1.2
  },
  {
    "compound": "Cc1ccccc1C(=O)Nc1ccc(C(=O)N2CCCC(N(C)C)c3ccccc32)cc1 (stereo not drawn)",
    "nuclear beta-catenin stimulation, %": 30
  },
  {
    "compound": "CCCOC(=O)c1cc(O)c(O)c(O)c1",
    "nuclear beta-catenin stimulation, %": 1.9
  },
  {
    "compound": "Fc1ccc(C(c2ccc(F)cc2)N2CCNCC2)cc1",
    "nuclear beta-catenin stimulation, %": 0.1
  },
  {
    "compound": "CN1CCN(N)CC1",
    "nuclear beta-catenin stimulation, %": 0.7
  },
  {
    "compound": "CCOCCn1c(C2CCN(CCc3ccc(C(C)(C)C(=O)O)cc3)CC2)nc2ccccc21",
    "nuclear beta-catenin stimulation, %": 1.3
  },
  {
    "compound": "Nc1nnnn1-c1ccccc1",
    "nuclear beta-catenin stimulation, %": 0.5
  }
]
